Biological target: T1, Anti-PSMA Fab (SEQ ID NOs: 19, 20)
T1 construct: Biotinylated and captured on neutravidin coated plates in the phage ELISA; also called 006 PSMA Fab
Experiment: phage binding ELISA; PSMA Fab on plate pre-incubated with PSMA antigen as competitor, anti-M13 HRP detection;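 also: crude clonal phage supernatants added without washing to wells preincubated with PSMA in blocking buffer, compared with wells receiving blocking buffer only, then bound phage detected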
Where no end group is shown, it is not given here.
PROPERTY: Phage binding ELISA, Anti-PSMA Fab signal in the presence of PSMA

The cases that follow already have their Phage binding ELISA, Anti-PSMA Fab signal in the presence of PSMA on record.
{"BINDER": "PVKWCIPTWMCAPV (cysteine pairing not given here; also: fused to phage pIII (clonal phage display)) [Phage-1953]", "VAL": 0.0978}
{"BINDER": "LENWCIPAWMCSGF [Phage-1957]", "VAL": 0.0656}
{"BINDER": "DGKWCIPAWMCVDM [Phage-1958]", "VAL": 0.0672}
{"BINDER": "AEHWCIPSWMCAGF (cysteine pairing not given here; also: displayed as fusion to phage pIII) [Phage-1951]", "VAL": 0.104}
{"BINDER": "VVKWCLPPWMCTDF [Phage-1962]", "VAL": 0.0829}

Parameters: items (list). Returns: Phage binding ELISA, Anti-PSMA Fab signal in the presence of PSMA for each item.
1. LVKWCTPAWMCEFI [Phage-1963]
2. FAKWCTPVWMCAGL (cysteine pairing not given here; also: displayed as fusion to phage pIII) [Phage-1956]
3. WDKWCIPEWMCESM [Phage-1959]

Marked response:
[0.0856, 0.281, 0.0718]
